From: PubChem BioAssay

Test system: XIP peptide (Xip251-270)
Assay: small-molecule binders of XIP peptide, primary screen, biochemical, small-molecule microarray, fluorescence 635/667 nm, 0.5 µg/mL protein (AID 1183)
Details: small-molecule microarray binding, fluorescence 635 nm; higher = more signal
Assay readout: composite z-score

1) COCCCNC(=O)[C@]1(Cc2ccccc2CN=[N+]=[N-])N=C(c2ccc(OCCCO)cc2)O[C@@H]1c1ccccc1 = 0.598
2) [N-]=[N+]=NCc1ccccc1[C@H]1OC(c2ccc(OCCCO)cc2)=N[C@@]1(CCS(=O)(=O)c1ccccc1)C(N)=O = 0.558
3) CC(=O)NCCCC[C@@H]1NC(=O)[C@@H]2C[C@H](C(=O)O)[C@H](c3ccc(O)cc3)N2C1=O = -0.0306
4) COc1ccc(C(O)C2C=CC3C(=O)N(C)C(=O)C3N2N2CCCCC2)cc1 (stereo not given) = 0.37
5) CC1CC/C=C\[C@H]2OC34C=CCN(CCN5CCOCC5)C(=O)[C@H]3N(CCO)C(=O)[C@@H]4C2C(=O)O1 (stereo not given in full) = 0.829
6) O=C1NC(=O)C2C1C=CC(C(O)c1ccc(Br)cc1)N2Nc1ccccn1 (stereo not given) = 0.883
7) CN1C(=O)C2C=CC(C(O)C3CCCCC3)N(N3CCCCC3)C2C1=O (stereo not given) = 0.803
8) CN(C)CCCNC(=O)[C@@]1(C)c2ccccc2C(=O)N(Cc2cc(C(F)(F)F)cc(C(F)(F)F)c2)[C@H]1c1ccc(CO)cc1 = -0.987
9) CN1C(=O)C2C=CC(C(O)c3c(F)cccc3Cl)N(Nc3ccccc3)C2C1=O (stereo not given) = 0.324
10) CCOc1cc(C(O)C2C=CC3C(=O)N(C)C(=O)C3N2N2CCCCC2)ccc1O (stereo not given) = 0.333
11) Cc1ccc(F)cc1S(=O)(=O)N[C@@H]1CCN(Cc2ccc(Oc3ccccc3)cc2)C1 = -0.0723
12) COC(=O)[C@@]1(Cc2ccc(OC)cc2)[C@H]2c3cc(C(=O)N4CCCC4)n(CCc4cc5ccccc5[nH]4)c3C[C@H]2CN1C(=O)c1ccccc1 = 0.685
13) C[C@]1(C(=O)NC2CC2)c2ccccc2C(=O)N(Cc2ccc(OC(F)(F)F)cc2)[C@H]1c1ccc(CO)cc1 = -0.923
14) C=CC[C@@]1(C(=O)O)N=C(c2ccc(OCCCO)cc2)O[C@@H]1c1ccccc1 = 0.994
15) COc1cc2c(cc1O)C(C)N(Cc1cc3c(cc1Br)OCO3)CC2 (stereo not given) = 0.291
